// values below are reported GI50
System: TK-10
ASSAY_METHOD_TEXT: NCI tumour cell line growth inhibition, 48 h
Calls of active or inactive are those of the source. Rule as the data show it: active = GI50 up to about 1.1 µM and inactive = higher.

Below, each entry is followed by its recorded GI50 result.
| COMPOUND | ENDPOINT_NAME | RESULT |
| --- | --- | --- |
| Cl[Si]1(Cl)Oc2ccccc2O[Si](Cl)(Cl)Oc2ccccc2O1 | GI50 | 46.1 µM (inactive) |
| O=C(O)c1cscc1Cc1cccs1 | GI50 | > 100 µM (inactive) |
| C=C(COC(=O)C(C)C)[C@H]1Oc2ccc(C(C)=O)cc2[C@@H]1OC(=O)C(C)C | GI50 | > 100 µM (inactive) |
| CC(=O)OC(C)c1cc2c(s1)C(=O)c1sccc1C2=O (centres undefined) | GI50 | 1.85 µM (inactive) |
| COc1ccc(/C=C2\CCC(CCN3CCOCC3)C2=O)cc1 (centres undefined) | GI50 | > 100 µM (inactive) |

Fill blank: measured GI50 of the compound Cc1cc(S(=O)(=O)Nc2nnc3c(Cl)cc(C(F)(F)F)cn23)c(S)cc1Cl is ____.
> 100 µM (inactive)

Fill blank: measured GI50 of the compound CCC1OC2(C)CC(C#N)(C#N)C1(C#N)C(=N)O2 (centres undefined) is ____.
> 100 µM (inactive)

Fill blank: measured GI50 of the compound CCN(CC)CCC(=O)NC1c2ccc(Cl)cc2Oc2c(C)cccc21 (centres undefined) is ____.
14.6 µM (inactive)

Fill blank: measured GI50 of the compound O=C1CC2OCC=C3CN4CCC5(C(=O)O)C(N1)C2C3CC45 (centres undefined) is ____.
> 100 µM (inactive)

Fill blank: measured GI50 of the compound O=C(O)c1c(CC(Cc2ccc3c(c2)CCC3)C(=O)O)ccc2c1CCC2 (centres undefined) is ____.
> 100 µM (inactive)

Fill blank: measured GI50 of the compound CCSc1nc(C)nc2c1sc1nc3ccccc3n12 is ____.
> 100 µM (inactive)

Fill blank: measured GI50 of the compound CC1(C)CC(=O)c2c(nc3ccc4ccccc4c3c2-c2ccc(NC(=O)CCCC(=O)Nc3ccc(-c4c5c(nc6ccc7ccccc7c46)CC(C)(C)CC5=O)cc3)cc2)C1 is ____.
> 100 µM (inactive)

Fill blank: measured GI50 of the compound O=c1[nH]cc(COCC(F)(F)C(F)(F)C(F)(F)C(F)F)c(=O)[nH]1 is ____.
> 100 µM (inactive)

Fill blank: measured GI50 of the compound Cc1cc(NS(=O)(=O)c2ccc(NC(=O)c3cccc4cc5ccccc5nc34)cc2)no1 is ____.
35.9 µM (inactive)

Fill blank: measured GI50 of the compound CC1C(=O)N(C)C2(CO)C(=O)O[C@H](C)C12O (some centres undefined) is ____.
> 100 µM (inactive)

Fill blank: measured GI50 of the compound CC1=C(CCC(C)CO)O[C@H]2C[C@H]3[C@@H]4CC[C@H]5C[C@@H](O)CC[C@]5(C)[C@H]4CC(=O)[C@]3(C)[C@@H]12 (some centres undefined) is ____.
19.8 µM (inactive)

Fill blank: measured GI50 of the compound COc1cc2c(c(OC)c1OC)-c1ccc(SC)c(=O)cc1[C@@H](NC(=O)c1ccc(C#N)cc1)CC2 is ____.
3.3 µM (inactive)

Fill blank: measured GI50 of the compound CCN1C[C@]2(C)CC[C@H](OC)C34C5C[C@@H]6[C@@H](OC)C[C@@](OC)(C5[C@H]6OCc5ccccc5)C(C13)[C@H](OC(C)=O)[C@@H]42 (some centres undefined) is ____.
> 100 µM (inactive)

Fill blank: measured GI50 of the compound CC(C)(C)OC(=O)N(CCCCNCc1ccc2ccccc2c1)CCCNCc1ccc2ccccc2c1 is ____.
1.66 µM (inactive)

----------
Tested on: COLO 205
ASSAY_METHOD_TEXT: NCI tumour cell line growth inhibition, 48 h
Calls of active or inactive are those of the source. Cut-off read from the data, not from the text of the source: active = GI50 up to about 1.1 µM and inactive = higher.
Valid outcomes are listed here; reply with one: active, inactive

| COMPOUND | CLASS_LABEL |
| --- | --- |
| O=C1N/C(=N/N=C/C(O)C(O)C(O)CO)N/C1=C\c1ccco1 (stereo unspecified) | inactive |
| COc1cc2c(c(OC)c1OC)-c1ccc(OC)c(=O)cc1[C@@H](N(C)C=O)CC2 | active |
| Cc1ccc([N+](=O)[O-])cc1NC(=O)C(=O)Cc1cc(=O)oc2cc(O)ccc12 | inactive |
| Oc1ccc(SCc2cc(O)ccc2O)cc1 | inactive |
| CSc1ccc(OCC2OC2O)cc1 (stereo unspecified) | inactive |

For COc1cc(C2C3=C(COC3=O)Oc3cc4c(cc32)OCO4)ccc1O (stereo unspecified) , what call appears in the results of this test?
active

----------
System: NCI-H226
ASSAY_METHOD_TEXT: NCI tumour cell line growth inhibition, 48 h
Calls of active or inactive are those of the source. Cut-off read from the data, not from the text of the source: active = GI50 up to about 1.1 µM and inactive = higher.
// values below are reported GI50

Below, each entry is followed by its recorded GI50 result.
| COMPOUND | GI50 |
| --- | --- |
| CC(=O)OCCOCNC(=S)N/N=C/c1cc([N+](=O)[O-])ccc1O | > 100 µM (inactive) |
| CCC1CC(=O)N(SCC(N)C(=O)O)C1=O (configuration not stated) | > 100 µM (inactive) |
| Cc1cc(C)n(C2OC(CO)C(O)C(O)C2O)c(=S)c1C#N (configuration not stated) | > 100 µM (inactive) |
| Cl[Si]1(Cl)Oc2ccccc2O[Si](Cl)(Cl)Oc2ccccc2O1 | 38.5 µM (inactive) |
| O=C(N/N=C\c1ccc([N+](=O)[O-])s1)c1ccncc1 | 5.15 µM (inactive) |
| O=C(O)c1c(CC(Cc2ccc3c(c2)CCC3)C(=O)O)ccc2c1CCC2 (configuration not stated) | > 100 µM (inactive) |

Give GI50 (NCI-H226) of the following compound: O=C1CC2(CCNCC2)C(=O)N1N1CCCCC1
> 100 µM (inactive)

Give GI50 (NCI-H226) of the following compound: CC(=O)NC1=CC(=O)C=C(Cl)C1=O
> 100 µM (inactive)

Give GI50 (NCI-H226) of the following compound: CC1(C(=O)O)CCOc2ccccc21 (configuration not stated)
> 100 µM (inactive)

Give GI50 (NCI-H226) of the following compound: COc1cc(CC(C)NC(C)=O)cc(OC)c1 (configuration not stated)
> 100 µM (inactive)

Give GI50 (NCI-H226) of the following compound: O=P(O)(O)CN1CCNCCN(CP(=O)(O)O)CCN(CP(=O)(O)O)CCNCC1
9.48 µM (inactive)

Give GI50 (NCI-H226) of the following compound: C[n+]1ccn2c3nc4ccccc4nc3c([O-])c(C#N)c21
> 100 µM (inactive)

----------
Test system: SK-MEL-2
ASSAY_METHOD_TEXT: NCI tumour cell line growth inhibition, 48 h
Activity calls are given as the source filed them. Cut-off read from the data, not from the text of the source: active = GI50 up to about 1.1 µM and inactive = higher.
Valid outcomes are listed here; reply with one: label 1 for active, label 0 for inactive

Past entries and their recorded results:
| COMPOUND | CLASS_LABEL |
| --- | --- |
| O=c1cccccc1NCCCCCCCNc1cccccc1=O | label 0 |
| COc1cc2c(c(OC)c1OC)-c1ccc(OC)c(=O)cc1[C@@H](N(C)C=O)CC2 | label 1 |

For Nn1c(Sc2nc3ccccc3c(=O)n2N)nc2ccccc2c1=O , what call appears in the results of this test?
label 0

For COC(=O)[C@]1(c2cc3ccccc3[nH]2)CC2CN(CC(=O)N(C)OC)C1C1OC(C)(C)OC21 (stereo partly drawn) , what call appears in the results of this test?
label 0

For COc1ccc(/C=C2\CCC(CCN3CCOCC3)C2=O)cc1 (stereo not drawn) , what call appears in the results of this test?
label 0

For Cc1nc(O)nc(N/N=C/c2ccc(Cl)cc2)c1C(=O)NC(C)(CO)CO , what call appears in the results of this test?
label 0

For CC(Cc1ccc(Cl)cc1Cl)NO (stereo not drawn) , what call appears in the results of this test?
label 0

For C[P+]1(c2ccccc2)CCCCC1 , what call appears in the results of this test?
label 0

For N=C(N)N/N=C(/CCN1CCCC1)CC(c1ccccc1)c1c(O)c2ccccc2oc1=O (stereo not drawn) , what call appears in the results of this test?
label 0

For c1ccc2c(c1)-c1ccccc1C2N1CC2CCC(CC2)C1 , what call appears in the results of this test?
label 0

For NCOC(=O)Cc1ccc(Br)cc1 , what call appears in the results of this test?
label 0

For N#CC(C(=O)C(=O)Nc1ccc(Cl)c(Cl)c1)c1ccc(Cl)cc1 (stereo not drawn) , what call appears in the results of this test?
label 0

For Cc1cc(OCc2nn(CN3CCN(C)CC3)c(=S)n2/N=C/c2ccc(-c3ccc(Cl)cc3Cl)o2)ccc1Cl , what call appears in the results of this test?
label 0

For COc1cc(Nc2cc(Cl)cc(Cl)c2)nc(N)n1 , what call appears in the results of this test?
label 0

For O=C(O)c1c(CC(Cc2ccc3c(c2)CCC3)C(=O)O)ccc2c1CCC2 (stereo not drawn) , what call appears in the results of this test?
label 0

For O=C1C(Cl)N(c2cccc([N+](=O)[O-])c2)C1c1c[nH]c2ccccc12 (stereo not drawn) , what call appears in the results of this test?
label 0

For COc1cc2c(c(OC)c1OC)-c1ccc(SC)c(=O)cc1[C@@H](NC(=O)c1ccc(C#N)cc1)CC2 , what call appears in the results of this test?
label 1

For CCOC(=O)COc1cc(-c2ccccc2F)nc2cc3c(cc12)OCO3 , what call appears in the results of this test?
label 0

For CCCCC#C[I+]c1ccccc1 , what call appears in the results of this test?
label 0

For CCOC(=O)c1nc2cc(N3CCOCC3)c(F)cc2[nH]c1=O , what call appears in the results of this test?
label 0

For Cc1[nH]c2ccccc2c1CC/C(=N\Nc1ccccc1)c1ccccc1 , what call appears in the results of this test?
label 0

For C(=N\OCc1ccccc1)/c1ncccc1C1OCCO1 , what call appears in the results of this test?
label 0

For CCOc1c(Cc2ccccc2)c(=O)n2c3ccccc3n3c(=O)n(C)c(=O)c1c23 , what call appears in the results of this test?
label 0
